# Assay Summary: Quantitative High-Throughput drug screen in 47 multiple myeloma cell lines against the NCATS MIPE library collection: VP6_DJ cell viability assay (AID 1919867); also: nearly all actives have a fitted effect of over 40% in size
# Experimental Context: ATP luminescence, 48 h; series mostly up to 45.8 µM
Records with an inconclusive call do not appear. Active and inactive are the calls of the source. Calls follow the shape of the dose curve; as a rule, active = well fitted cell-killing curve with a large enough effect; inconclusive = small, poorly fitted or top-dose-only effect, or effect the other way; inactive = no such curve, though single readings can be large or run the other way.
Select the matching outcome among 1.0 for active, 0.0 for inactive

These solved cases illustrate the format of a correct answer.
Oc1ccc(-c2nc(-c3ccc(F)cc3)c(-c3ccncc3)[nH]2)cc1: 1.0
COc1c(O)cc2c(c1O)[C@@H]1O[C@H](CO)[C@@H](O)[C@H](O)[C@H]1OC2=O: 0.0

Moving on to the next molecule.
[Q] # outcome recorded in this test, key = Nc1nc(N)c(N=O)c(OCC2CCCCC2)n1
[A] 1.0

###

# Test Target: Cytochrome P450 2C9 (Homo sapiens) (UniProt P11712)
# Sequence (P11712 whole entry, looked up): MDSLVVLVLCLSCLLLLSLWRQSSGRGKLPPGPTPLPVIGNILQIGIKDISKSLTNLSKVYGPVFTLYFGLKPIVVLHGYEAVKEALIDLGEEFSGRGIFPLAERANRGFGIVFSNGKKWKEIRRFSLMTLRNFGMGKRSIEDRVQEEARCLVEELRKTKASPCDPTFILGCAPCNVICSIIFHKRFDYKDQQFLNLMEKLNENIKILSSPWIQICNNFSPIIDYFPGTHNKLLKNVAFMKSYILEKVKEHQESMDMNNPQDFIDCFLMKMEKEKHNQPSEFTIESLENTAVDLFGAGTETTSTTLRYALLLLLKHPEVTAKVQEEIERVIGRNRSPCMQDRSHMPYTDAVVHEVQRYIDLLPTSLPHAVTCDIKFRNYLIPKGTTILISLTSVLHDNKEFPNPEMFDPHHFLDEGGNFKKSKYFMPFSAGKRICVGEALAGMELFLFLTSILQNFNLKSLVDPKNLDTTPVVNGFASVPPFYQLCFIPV
# Assay Summary: Cytochrome P450 family 2 subfamily C member 9 (CYP2C9) small molecule antagonists: luciferase biochemical (cell-free) qHTS assay (AID 1645842); also: nearly all actives have a fitted effect of over 55% in size; also: potency is read from the fitted curve at half-maximal effect
# Experimental Context: P450-Glo CYP2C9 enzyme assay, luciferin luminescence; series mostly up to 57.4 µM
Records with an inconclusive call do not appear. Active and inactive are the calls of the source. Calls follow the shape of the dose curve; as a rule, active = well fitted inhibition curve with a large enough effect in the repeat runs; inconclusive = weak or mixed curves; inactive = no such curve, though single readings can be large or run the other way.
Quantity: Potency

Known results for compounds:
CS(=O)(=O)OCCCCOS(C)(=O)=O: inactive
O=c1oc2cc(O)ccc2s1: inactive
Cc1ncc([N+](=O)[O-])n1CC(C)O (stereo not drawn): inactive
NC(=NCc1ccccc1)NC(=O)c1nc(Cl)c(N)nc1N: inactive
Cc1cccc(C)c1OCC(=O)N[C@@H](Cc1ccccc1)[C@@H](O)C[C@H](Cc1ccccc1)NC(=O)[C@H](C(C)C)N1CCCNC1=O: 17.4 µM (active)
CCc1nc(N)nc(N)c1-c1ccc(Cl)cc1: inactive

# batch size: 4; output Potency per entry
1. Cc1cccc(CN2CCN(C(c3ccccc3)c3ccc(Cl)cc3)CC2)c1 (stereo not drawn)
2. Cc1cc(=O)c2c(O)c3c(O)cc(=O)c4c3c3c(cc(O)c1c23)C(C)(C)C=4O
3. CC1Cc2ccccc2N1NC(=O)c1ccc(Cl)c(S(N)(=O)=O)c1 (stereo not drawn)
4. COCCCN1CCC(NC(=O)c2cc(Cl)c(N)c3c2OCC3)CC1

[A]
1. 11 µM (active)
2. inactive
3. inactive
4. 2.45 µM (active)

Your task in this section: give Potency for each listed record.
1. COc1cc2c(N3CCN(C(=O)Nc4ccc(OC(C)C)cc4)CC3)ncnc2cc1OCCCN1CCCCC1
2. Cc1nc(Nc2ncc(C(=O)Nc3c(C)cccc3Cl)s2)cc(N2CCN(CCO)CC2)n1
3. COc1cc(C(C)=O)ccc1OCCCN1CCC(c2noc3cc(F)ccc23)CC1
4. NC(=O)Cc1cccc(C(=O)c2ccccc2)c1N
5. CCC[C@@H]1C[C@@H](C(=O)N[C@@H]([C@H]2O[C@H](SC)[C@H](O)[C@@H](O)[C@H]2O)[C@@H](C)O)N(C)C1
6. COc1cc2nc(N3CCN(C(=O)C4CCCO4)CC3)nc(N)c2cc1OC (stereo not drawn)

[A]
1. inactive
2. inactive
3. inactive
4. inactive
5. inactive
6. inactive

###

# Tested on: DIV30
# Assay Summary: qHTS profiling for inhibitors of Plasmodium falciparum proliferation (AID 504749);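 also: 0% = DMSO vehicle and full inhibition = artemisinin control; nearly all actives have a fitted effect of over 60% in size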
# Experimental Context: P. falciparum in erythrocytes, SYBR Green DNA, 72 h; series mostly up to 28.7 µM
Results filed as inconclusive are left out. Active and inactive are the calls of the source. Calls come from the whole dose curve; as a rule, active = well fitted inhibition curve with a large enough effect; inconclusive = small, poorly fitted or top-dose-only effect; inactive = flat fitted curve, though single readings scatter.
Allowed answers: active, inactive

Nc1ccc(S(N)(=O)=O)cc1: inactive
O=C1CCc2ccc(OCCCCN3CCN(c4cccc(Cl)c4Cl)CC3)cc2N1: inactive
O=C(O)c1cccnc1Nc1cccc(C(F)(F)F)c1: inactive

[Q] What was the test verdict on CCCCC(CC)COC(=O)C(C#N)=C(c1ccccc1)c1ccccc1 (centres undefined) ?
[A] inactive
